// provenance: PubChem BioAssay

method-notes: modulators of MEP2-GFP levels in yeast, confirmation, S. cerevisiae, flow cytometry GFP, cherry picks (AID 2272);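 further: ratio of well signal to plate DMSO mean so 100% equals DMSO level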
condition-set: S. cerevisiae MEP2-GFP strain, 3 h, at 10 µM, active compounds read high
property-name: GFP response vs DMSO (%)
Just the number please, in %, no unit attached.

compound: Cc1cc(NC(=O)c2cc3ccccc3o2)ccc1NC(=O)c1ccccc1
uom: %
GFP response vs DMSO: 102

Continue with the next compound.
Query: Give me measured GFP response vs DMSO, please, for this compound: CCCc1nn(-c2ccccc2)c2c1C(c1cccs1)C(C#N)=C(N)O2 (stereo unspecified)
Reply: 95.7

----------
// reported percent response of DMSO control per item
method-notes: modulators of CIT2-GFP expression in yeast, primary screen, S. cerevisiae, GFP fusion, multiplex flow cytometry (AID 1870);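 further: barcoded CIT2-GFP strain pooled with four other GFP strains with rapamycin as positive control; median GFP fluorescence per well over plate mean of DMSO wells so 100% = DMSO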
condition-set: 3 h, at 10 µM, active compounds read high
Just the number please, in %, no unit attached.

compound: CN(C)CCOC(C)(c1ccccc1)c1ccccn1 (stereo unspecified)
percent response of DMSO control [%]: 93.1
//
compound: Cc1ccc(C(CC(=O)NCc2ccco2)c2ccc(OC(C)C)cc2)cc1 (stereo unspecified)
percent response of DMSO control [%]: 96.9
//
compound: Cn1c2ccccc2c2cc(/C=C(\NC(=O)c3ccccc3)C(=O)O)ccc21
percent response of DMSO control [%]: 106
//
compound: Nc1ccc(S(=O)(=O)c2ccc(N)cc2)cc1
percent response of DMSO control [%]: 93
//
compound: COc1ccc(Cc2nc(-c3ccc(Br)cc3)no2)cc1
percent response of DMSO control [%]: 101
//
compound: CC(=O)c1c(N)nc2n(c1=O)CCCCC2
percent response of DMSO control [%]: 108
//
compound: CC(C)(C)[C@]1(O)CCN2C[C@H]3c4ccccc4CCc4cccc(c43)[C@@H]2C1
percent response of DMSO control [%]: 112
//
compound: Cc1c(OC(=O)CNC(=O)OC(C)(C)C)ccc2c3c(c(=O)oc12)CCC3
percent response of DMSO control [%]: 90

Query: Give me measured percent response of DMSO control, please, for this compound: NCCCC(=O)O
Reply: 95.9

Query: Give me measured percent response of DMSO control, please, for this compound: CC(C)Oc1ccc(C(CC(=O)O)c2ccc(F)cc2)cc1 (stereo unspecified)
Reply: 92

Query: Give me measured percent response of DMSO control, please, for this compound: O=c1c(-c2ccc3c(c2)OCCO3)coc2cc(OC3OC(CO)C(O)C(O)C3O)ccc12 (stereo unspecified)
Reply: 106

----------
test-target: Integrin beta-1 (Homo sapiens) + Integrin alpha-4 (Homo sapiens) (UniProt P13612+P05556)
Sequence (P05556 whole entry, looked up): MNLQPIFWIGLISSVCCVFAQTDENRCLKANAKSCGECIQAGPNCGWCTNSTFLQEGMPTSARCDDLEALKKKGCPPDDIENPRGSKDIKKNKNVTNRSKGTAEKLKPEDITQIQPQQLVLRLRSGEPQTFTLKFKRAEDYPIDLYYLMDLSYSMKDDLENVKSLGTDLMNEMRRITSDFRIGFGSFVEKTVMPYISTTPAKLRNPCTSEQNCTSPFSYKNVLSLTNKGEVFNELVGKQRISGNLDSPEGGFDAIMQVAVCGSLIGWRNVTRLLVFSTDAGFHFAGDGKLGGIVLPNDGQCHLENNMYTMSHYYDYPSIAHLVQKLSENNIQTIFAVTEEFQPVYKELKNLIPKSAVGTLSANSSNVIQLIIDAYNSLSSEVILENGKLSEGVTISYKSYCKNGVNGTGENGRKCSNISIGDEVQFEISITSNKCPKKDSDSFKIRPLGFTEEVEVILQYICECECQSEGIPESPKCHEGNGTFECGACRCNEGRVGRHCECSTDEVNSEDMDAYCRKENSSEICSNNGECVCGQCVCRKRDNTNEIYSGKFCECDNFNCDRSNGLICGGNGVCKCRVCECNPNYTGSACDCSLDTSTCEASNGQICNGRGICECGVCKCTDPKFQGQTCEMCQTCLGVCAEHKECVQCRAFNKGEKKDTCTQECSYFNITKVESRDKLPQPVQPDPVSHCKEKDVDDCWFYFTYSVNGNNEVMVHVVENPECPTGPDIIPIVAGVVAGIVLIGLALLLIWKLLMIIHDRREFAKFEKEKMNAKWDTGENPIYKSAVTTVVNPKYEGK
Sequence (P13612 whole entry, looked up): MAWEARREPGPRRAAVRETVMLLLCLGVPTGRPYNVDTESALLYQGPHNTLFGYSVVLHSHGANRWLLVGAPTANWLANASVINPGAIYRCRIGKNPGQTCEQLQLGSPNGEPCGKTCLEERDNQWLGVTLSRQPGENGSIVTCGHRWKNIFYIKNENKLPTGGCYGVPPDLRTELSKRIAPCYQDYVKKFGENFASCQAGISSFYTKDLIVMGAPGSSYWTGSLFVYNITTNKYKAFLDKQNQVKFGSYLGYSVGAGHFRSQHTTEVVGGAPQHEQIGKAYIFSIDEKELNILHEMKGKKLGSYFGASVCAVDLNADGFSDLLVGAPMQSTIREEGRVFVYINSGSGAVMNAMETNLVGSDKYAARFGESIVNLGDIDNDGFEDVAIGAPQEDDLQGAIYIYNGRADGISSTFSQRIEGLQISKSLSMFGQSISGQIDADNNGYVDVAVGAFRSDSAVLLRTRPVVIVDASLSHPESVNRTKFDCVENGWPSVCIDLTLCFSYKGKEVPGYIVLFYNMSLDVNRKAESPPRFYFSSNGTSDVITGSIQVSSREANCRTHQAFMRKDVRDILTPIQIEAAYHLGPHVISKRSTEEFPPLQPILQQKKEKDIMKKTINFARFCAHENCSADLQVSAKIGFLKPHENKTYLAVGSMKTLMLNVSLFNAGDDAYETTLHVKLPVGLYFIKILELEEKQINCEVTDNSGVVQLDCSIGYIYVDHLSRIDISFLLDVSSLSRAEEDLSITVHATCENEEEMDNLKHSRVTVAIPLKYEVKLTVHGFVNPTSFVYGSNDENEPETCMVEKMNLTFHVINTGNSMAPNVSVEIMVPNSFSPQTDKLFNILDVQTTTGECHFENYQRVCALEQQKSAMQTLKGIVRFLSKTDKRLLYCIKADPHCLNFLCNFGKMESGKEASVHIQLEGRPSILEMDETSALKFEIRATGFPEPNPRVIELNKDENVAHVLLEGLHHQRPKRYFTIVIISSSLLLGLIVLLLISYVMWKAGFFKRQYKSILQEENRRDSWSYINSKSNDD
method-notes: inhibition of HUTS-21 binding to VLA-4, pilot screen, VLA-4 allosteric modulator project, U937 cells, HUTS-21 mAb, flow cytometry, validation set (AID 2674);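 further: antibody binding induced by the VLA-4 ligand LDV present at three times its Kd; 0% = LDV ligand with antibody and no compound and 100% = antibody without LDV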
condition-set: HUTS-21 LIBS mAb binding, at 6.7 µM, active compounds read high, binding induced by LDV ligand
// reported inhibition per item
Just the number please, in %, no unit attached.

Query: Give me measured inhibition, please, for this compound: N#Cc1c2c(c(-c3ccccc3)[nH]c1=O)CCCC2
Reply: -7.7

Query: Give me measured inhibition, please, for this compound: O=C(O)c1cc(-c2ccccc2)nc2ccccc12
Reply: 23.1

Query: Give me measured inhibition, please, for this compound: C(=C/c1nccc2c1[nH]c1ccccc12)/c1ccc2c(c1)OCO2
Reply: -239

Query: Give me measured inhibition, please, for this compound: C[C@H](NC(=O)Nc1ccccc1F)C(=O)O
Reply: -12.7

Query: Give me measured inhibition, please, for this compound: CCOC(=O)Cc1c(C)nc(N)[nH]c1=O
Reply: -1.49

Query: Give me measured inhibition, please, for this compound: COc1ccc(-c2coc3cc(OC(=O)N4CCOCC4)ccc3c2=O)cc1
Reply: -9.57
